- target: Cytochrome P450 2C9 (Homo sapiens) (UniProt P11712)
- Sequence (P11712 whole entry, looked up): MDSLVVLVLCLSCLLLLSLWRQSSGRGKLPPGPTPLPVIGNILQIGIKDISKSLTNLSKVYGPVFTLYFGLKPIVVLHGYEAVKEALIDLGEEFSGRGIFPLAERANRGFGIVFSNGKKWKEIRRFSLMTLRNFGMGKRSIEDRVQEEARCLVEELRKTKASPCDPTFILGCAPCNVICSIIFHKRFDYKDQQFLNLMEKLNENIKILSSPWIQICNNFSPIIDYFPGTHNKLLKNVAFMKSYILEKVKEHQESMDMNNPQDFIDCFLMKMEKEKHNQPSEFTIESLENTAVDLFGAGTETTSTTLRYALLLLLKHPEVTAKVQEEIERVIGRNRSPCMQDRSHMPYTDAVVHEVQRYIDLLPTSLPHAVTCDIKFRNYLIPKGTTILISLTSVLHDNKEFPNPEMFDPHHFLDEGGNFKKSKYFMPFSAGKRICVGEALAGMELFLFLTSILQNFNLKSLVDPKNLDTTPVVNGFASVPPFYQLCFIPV
- test: Cytochrome panel assay with activity outcomes
- condition-set: recombinant CYP, pro-luciferin dealkylation, luminescence, p450-cyp2c9; series mostly up to 57.1 µM
In all, about 16,000 compounds went through this assay and about 4,000 (25%) were called active. Roughly 26% stayed inconclusive and do not appear here. Calls follow the shape of the dose curve; as a rule, active = well fitted curve in the direction sought with a large enough effect; inconclusive = small, poorly fitted or top-dose-only effect, or effect the other way; inactive = no such curve, though single readings can be large or run the other way. Only a sample is shown.
Your answer must be one of the following: TRUE = active, FALSE = inactive

NC(=O)C[C@H](NC(=O)Cc1ccc(O)cc1O)C(=O)O: FALSE
O=C(c1cc(C(F)(F)F)cc(C(F)(F)F)c1)N1CCC[C@@]2(CCN(c3ccncc3)C2)C1: FALSE
CN1C(=O)C[C@H](c2ccccc2)C1=O: FALSE
CC(=O)N1CCC2(CCCN(Cc3nccs3)C2)CC1: FALSE
CN(C)CCNC(=S)Nc1cccc(Cl)c1: FALSE
CCOC(=O)CCc1c(C)nc2ncnn2c1C: FALSE
ClC(=Nc1cccc2ccccc12)N(c1ccccc1)c1ccccc1: TRUE
OC[C@@H]1NC[C@@H](O)[C@H]1O: FALSE

[Q] Hello, I am checking results. What call was entered for Cc1c(N(C)CS(=O)(=O)O)c(=O)n(-c2ccccc2)n1C ?
[A] FALSE

[Q] // query: Cc1ccc(CONC(=O)/N=C/N(C)C)cc1
[A] FALSE

[Q] // query: O=C(Cc1ccccc1)N/N=C/c1ccccc1OCc1ccc(Cl)cc1
[A] TRUE

[Q] // query: COc1ccc(C(=O)N2CCC[C@@]3(CCN(c4cccc(-c5ccccc5)c4)C3)C2)cc1
[A] FALSE

[Q] // query: COc1ccc(-c2cc(C(F)(F)F)nc(N3CCN(C)CC3)n2)cc1OC
[A] FALSE

[Q] // query: Cc1ccc(S(=O)(=O)Oc2ccc(C3C4=C(CCCC4=O)OC4=C3C(=O)CCC4)cc2)cc1
[A] TRUE

[Q] // query: O=C(c1ccccc1)c1ccc2nc(-c3ccc(NC(=O)c4ccccc4F)cc3)[nH]c2c1
[A] TRUE

[Q] // query: CCOC(=O)c1ccc(S(=O)(=O)Nc2ccc3cn[nH]c3c2)cc1
[A] TRUE

[Q] // query: CC(=O)N(C)c1nnc(-c2cnccn2)s1
[A] FALSE

[Q] // query: Cc1n[nH]c(=S)n1/N=C/c1ccccc1OCc1ccc(Cl)cc1
[A] FALSE

[Q] // query: O/N=C/c1ccccc1OCc1ccc(Cl)cc1
[A] TRUE

[Q] // query: CCOC(=O)c1cc(CC)sc1NC(=O)C(c1ccccc1)c1ccccc1
[A] TRUE

[Q] // query: CNC(=O)C(=O)NCCc1ccc(Cl)cc1
[A] FALSE

[Q] // query: Cc1c(CCO)c(=O)n(-c2ccccc2)n1S(=O)(=O)c1c(Cl)cc(Cl)cc1Cl
[A] TRUE

* * *

- target: Cytochrome P450 2C9 (Homo sapiens) (UniProt P11712)
- test: Cytochrome panel assay with activity outcomes
- condition-set: recombinant CYP, pro-luciferin dealkylation, luminescence, p450-cyp2c9; series mostly up to 57.1 µM
The campaign covered roughly 16,000 compounds. About 4,000 (25%) were called active. Roughly 26% stayed inconclusive and do not appear here. Calls come from the whole dose curve; as a rule, active = well fitted curve in the direction sought with a large enough effect; inconclusive = small, poorly fitted or top-dose-only effect, or effect the other way; inactive = no such curve, though single readings can be large or run the other way. These entries were drawn from the full list.
Your answer must be one of the following: 1 (yes) (active), 0 (no) (inactive)

Recorded results for 6 compounds are shown here.
CCNc1ncc2nc(-c3ccc(F)cc3)c(=O)n(CCC#N)c2n1: 0 (no)
COc1ccc(NC(=S)N(CCc2nc3cc(C)c(C)cc3[nH]2)Cc2cccnc2)cc1: 1 (yes)
Oc1ccc2ccccc2c1/C=C\c1ccc2c(Br)cc(Br)c(O)c2n1: 1 (yes)
CCCC[C@@H]1C[C@H]1C(NC(=O)c1ccccc1)c1ccccc1C(F)(F)F (some centres not stated): 1 (yes)
CCCC[C@@H]1C[C@H]1C(NC(=O)c1cccs1)c1ccccc1C(F)(F)F (some centres not stated): 1 (yes)
Cc1onc(-c2ccccc2Cl)c1C(=O)Nc1nnc(Cc2ccc(Cl)cc2)s1: 1 (yes)

# evaluate next
[Q] Hello, I am checking results. What call was entered for CCOC(=O)C1CCCN(C(=O)C2CCN(S(=O)(=O)N3CCC4(CC3)OCCO4)CC2)C1 (configuration not stated) ?
[A] 0 (no)
